Each recorded value in this set is attributed to the supplement of paper PMC11616607.

System: Ovsaho
Procedure Summary: drug sensitivity score (DSS) from 5-point dose-response viability curve (DSS (area-under-curve based score)); higher = more sensitive (stronger growth inhibition or killing); extreme values may be limits of the assay
Setup Conditions: exposure time: 72 h; concentration range: 5 concentrations over 10,000-fold range
Quantity Name: drug sensitivity score
Number only, please.

Any idea what drug sensitivity score was measured for Cc1ccc(NC(=O)c2ccc(CN3CCN(C)CC3)cc2)cc1Nc1nccc(-c2cccnc2)n1 ?
0

So what does the record say about drug sensitivity score for COc1cc2ncnc(Nc3cccc(Cl)c3F)c2cc1OC(=O)N1CCN(C)C[C@H]1C ?
0

Return reported drug sensitivity score; argument: CN(C)C(=O)c1cc2cnc(Nc3ccc(N4CCNCC4)cn3)nc2n1C1CCCC1
0

Which drug sensitivity score is listed for CNC(=O)c1cccc2cc(Oc3ccnc4cc(OCC5(N)CC5)c(OC)cc34)ccc12 ?
0.8

Which value of drug sensitivity score has been reported for CC[C@H](CO)Nc1nc(NCc2ccccc2)c2ncn(C(C)C)c2n1 in the records?
0.1

Can you share its drug sensitivity score? I mean this molecule: O=C(O)C1(C(=O)O)CCC1.[NH2-].[NH2-].[Pt+2]
5.5

Look up drug sensitivity score for this molecule: CC[C@]12C=CCN3CC[C@@]4(c5cc([C@@]6(C(=O)OC)C[C@@H]7C[C@@H](C(C)(F)F)CN(Cc8c6[nH]c6ccccc86)C7)c(OC)cc5N(C)[C@H]4[C@@](O)(C(=O)OC)[C@@H]1OC(C)=O)[C@@H]32
1.8

###

Tested on: COV318
Procedure Summary: drug sensitivity score (DSS) from 5-point dose-response viability curve (DSS (area-under-curve based score)); higher = more sensitive (stronger growth inhibition or killing); extreme values may be limits of the assay
Setup Conditions: exposure time: 72 h; concentration range: 5 concentrations over 10,000-fold range
For each entry below, report its drug sensitivity score value.
Number only, no unit.

Param readout= drug sensitivity score; system= COV318; entry= Cc1ccc(Nc2nccc(N(C)c3ccc4c(C)n(C)nc4c3)n2)cc1S(N)(=O)=O ; returns value.
0.1

State its drug sensitivity score on COV318: COc1ccc(S(=O)(=O)Nc2cccnc2Nc2ccc(O)cc2)cc1
7.2

Kindly state the measured drug sensitivity score obtained for CC(C)n1cnc2c(NCCc3ccc(O)cc3)nc(-c3csc4ccccc34)nc21 with COV318.
1.1

Give recorded drug sensitivity score with COV318 for the following compound: C[C@@H](Oc1cc(-c2cnn(C3CCNCC3)c2)cnc1N)c1c(Cl)ccc(F)c1Cl
0

Give drug sensitivity score (COV318) of the following compound: CCN(CC)CCCC(C)Nc1ccnc2cc(Cl)ccc12 (stereo not given)
4.9

###

Assign drug sensitivity score to each entry below.
System: HOSE1C
Procedure Summary: drug sensitivity score (DSS) from 5-point dose-response viability curve (DSS (area-under-curve based score)); higher = more sensitive (stronger growth inhibition or killing); extreme values may be limits of the assay
Setup Conditions: exposure time: 72 h; concentration range: 5 concentrations over 10,000-fold range
Kindly provide the number alone.

Lookup: drug sensitivity score / HOSE1C / O=C(/C=C\n1cnc(-c2cc(C(F)(F)F)cc(C(F)(F)F)c2)n1)NNc1ccccn1 [Verdinexor]
22.2

Give HOSE1C drug sensitivity score for CO[C@H](C(=O)[C@@H](O)[C@@H](C)O)[C@@H]1Cc2cc3cc(O[C@H]4C[C@@H](O[C@@H]5C[C@@H](O)[C@H](O)[C@@H](C)O5)[C@H](O)[C@@H](C)O4)c(C)c(O)c3c(O)c2C(=O)[C@H]1O[C@H]1C[C@@H](O[C@@H]2C[C@@H](O)[C@@H](O[C@@H]3C[C@](C)(O)[C@H](O)[C@@H](C)O3)[C@@H](C)O2)[C@H](O)[C@@H](C)O1
0

I'm curious: which drug sensitivity score was measured for O=C(NC[C@H](O)CN1CCc2ccccc2C1)c1cc(NC2COC2)ncn1 tested on HOSE1C?
0

Request body: readout drug sensitivity score, system HOSE1C, query O=C(NOCCO)c1ccc2cncn2c1Nc1ccc(I)cc1F . Return the value.
0

Provide the documented drug sensitivity score with HOSE1C as the system for CC(C)Oc1ccc(C(=O)N[C@H](CNC(=O)CN(C)C)Cc2ccc(-c3cn4cccc([C@H](C)O)c4n3)cc2)cc1Cl
14.1

// map CC(=O)N(O)CCCCCNC(=O)CCC(=O)N(O)CCCCCNC(=O)CCC(=O)N(O)CCCCCN to recorded drug sensitivity score (system: HOSE1C)
1.8

###

System: JHOS2
Procedure Summary: drug sensitivity score (DSS) from 5-point dose-response viability curve (DSS (area-under-curve based score)); higher = more sensitive (stronger growth inhibition or killing); extreme values may be limits of the assay
Setup Conditions: exposure time: 72 h; concentration range: 5 concentrations over 10,000-fold range
Exercise: for every item that follows, state its recorded drug sensitivity score.
Answer with a number only.

Recorded drug sensitivity score for COc1cc2nccc(Oc3ccc(NC(=O)C4(C(=O)Nc5ccc(F)cc5)CC4)cc3)c2cc1OC [Cabozantinib] with JHOS2, please?
1

Notebook: pull reported drug sensitivity score for JHOS2, entry C=CC[C@@H]1/C=C(\C)C[C@H](C)C[C@H](OC)[C@H]2O[C@@](O)(C(=O)C(=O)N3CCCC[C@H]3C(=O)O[C@H](/C(C)=C/[C@@H]3CC[C@@H](O)[C@H](OC)C3)[C@H](C)[C@@H](O)CC1=O)[C@H](C)C[C@@H]2OC
1.8

Recall the recorded drug sensitivity score for O=c1[nH]c(C2CCCN2)nc2c1oc1ccc(Cl)cc12 (centres undefined) with JHOS2 and state it.
0

Test system JHOS2; read-out drug sensitivity score; what value for Nc1ncn([C@@H]2O[C@H](CO)[C@@H](O)[C@H]2O)c(=O)n1 ?
4.4

###

Give measured drug sensitivity score for each item. Keep answers brief.
Test system: JHOS2
Procedure Summary: drug sensitivity score (DSS) from 5-point dose-response viability curve (DSS (area-under-curve based score)); higher = more sensitive (stronger growth inhibition or killing); extreme values may be limits of the assay
Setup Conditions: exposure time: 72 h; concentration range: 5 concentrations over 10,000-fold range
Provide a numeric answer; units are not to be included.

Given COc1cc2ncnc(Nc3ccc(F)c(Cl)c3)c2cc1NC(=O)/C=C/CN1CCCCC1 , state its recorded drug sensitivity score.
0.8

Look at this compound and give its reported drug sensitivity score. COc1cc(N2CCN(C)CC2)ccc1Nc1nccc(-c2cn(C)c3cnccc23)n1
4.4

Report drug sensitivity score for CC(=O)c1c(C)c2cnc(Nc3ccc(N4CCNCC4)cn3)nc2n(C2CCCC2)c1=O please.
6.3

drug sensitivity score for CC1(COc2ccc3c(c2)ncn3-c2ccc3cccc(N4CCC(N)CC4)c3n2)COC1 ?
7.9

Dear colleague, I am looking for the recorded drug sensitivity score of the following compound: CC(C)C[C@H](NC(=O)[C@H](Cc1ccccc1)NC(=O)c1cnccn1)B(O)O
24.5

Give the measured drug sensitivity score of COc1ccc(COc2cc3oc(=O)c4cc(C(C)O)ccc4c3cc2OC)cc1 (centres undefined) .
0

# lookup: drug sensitivity score of CO[C@H]1C[C@@H]2CC[C@@H](C)[C@@](O)(O2)C(=O)C(=O)N2CCCC[C@H]2C(=O)O[C@H]([C@H](C)C[C@@H]2CC[C@@H](OP(C)(C)=O)[C@H](OC)C2)CC(=O)[C@H](C)/C=C(\C)[C@@H](O)[C@@H](OC)C(=O)[C@H](C)C[C@H](C)/C=C/C=C/C=C/1C
4.3

Need drug sensitivity score of COCCNCc1ccc(-c2cc3nccc(Oc4ccc(NC(=S)NC(=O)Cc5ccc(F)cc5)cc4F)c3s2)nc1 , thanks.
0

What value of drug sensitivity score has been recorded for this entry: CCn1c(=O)c(-c2ccc(Cl)cc2Cl)cc2cnc(Nc3ccc(N4CCNCC4)c(F)c3)nc21
3.7

What value of measured drug sensitivity score is listed for CC(C)[C@H]1C(=O)N[C@@H](CCCNC(=N)N)C(=O)NCC(=O)N[C@@H](CC(=O)O)C(=O)N[C@H](Cc2ccccc2)C(=O)N1C [Cilengitide] ?
1.6

What does the data say about its drug sensitivity score? Entry: O=C(NC1CCNCC1)c1n[nH]cc1NC(=O)c1c(Cl)cccc1Cl
18

Form field: reported drug sensitivity score of COc1cc(OC)cc(N(CCNC(C)C)c2ccc3ncc(-c4cnn(C)c4)nc3c2)c1
0

# input compound: Cc1nn(C)c(COc2ccc(N3CCN(S(=O)(=O)N(C)C)CC3)cc2)c1-c1cccc2c(CCCOc3cccc4ccccc34)c(C(=O)O)n(CCN3CCOCC3)c12 ; wanted: its drug sensitivity score
6.3

I'd like to know its drug sensitivity score. The compound in question is C=C1C[C@@H]2CC[C@@]34C[C@H]5O[C@H]6[C@@H](O3)[C@H]3O[C@H](CC[C@@H]3O[C@H]6[C@H]5O4)CC(=O)C[C@@H]3[C@@H](OC)[C@@H](C[C@H](O)CN)O[C@H]3C[C@H]3O[C@@H](CC[C@@H]1O2)C[C@@H](C)C3=C
9.1

Look up drug sensitivity score for this compound: C[C@H]1CNCCCN1S(=O)(=O)c1cccc2cncc(F)c12
0

Fill in: drug sensitivity score of CN1CC[C@H](c2c(O)cc(O)c3c(=O)cc(-c4ccccc4Cl)oc23)[C@H](O)C1 is ___
14

What drug sensitivity score value was documented for this compound, CCN(CC)CCN(Cc1ccc(-c2ccc(C(F)(F)F)cc2)cc1)C(=O)Cn1c(SCc2ccc(F)cc2)nc(=O)c2c1CCC2 ?
0.3

Can you look up the measured drug sensitivity score of O=C(CCNC(=O)c1ccc(OC(F)(F)F)cc1)N[C@@H]1CCCc2ccccc21 for me?
3.4

What measured drug sensitivity score goes with C[C@]1(O)C[C@@H](c2nc(-c3ccc4ccc(-c5ccccc5)nc4c3)c3c(N)nccn32)C1 ?
0

drug sensitivity score lookup needed for O=C(Nc1ccc(OC(F)(F)Cl)cc1)c1cnc(N2CC[C@@H](O)C2)c(-c2cc[nH]n2)c1 , thanks.
0

Name the recorded drug sensitivity score for Cn1cc(C2=Nc3cc(NC(=O)C(N)C4CCCCC4)cc4c3C2=CNNC4=O)cn1 (centres undefined) .
5.1

Request the reported drug sensitivity score associated with C=CC(=O)Nc1cccc(Oc2nc(Nc3ccc(N4CCN(C)CC4)cc3)nc3ccsc23)c1
0

Looking for the measured drug sensitivity score of COc1cc2ncnc(Nc3ccc(F)c(Cl)c3)c2cc1OCCCN1CCOCC1 , can you help?
1.6

Quick check: drug sensitivity score of CC[C@H](CC#N)OC(=O)N[C@@H](C)c1cccc(NC(=O)Nc2ccc(-c3cnco3)c(OC)c2)c1 ?
9.6

Suppose we examine the compound Cc1ccc(NC(=O)c2ccc(CN3CCN(C)CC3)cc2)cc1Nc1nccc(-c2cccnc2)n1 ; what drug sensitivity score value has been reported?
0

Could you share which drug sensitivity score value was measured for COc1cc(N2CCC(N3CCN(C)CC3)CC2)ccc1Nc1ncc(Cl)c(Nc2ccccc2P(C)(C)=O)n1 ?
2.1

I am curious: what drug sensitivity score value has been reported for COc1cc(OC2CCN(C)CC2)ccc1Nc1ncc2c(n1)n(C1CCCC1)c(=O)n2C ?
2.3

Which value of drug sensitivity score has been reported for Cn1cc(CNCC2CCN(c3ncc(C(=O)NO)cn3)CC2)c2ccccc21 in the records?
8.1

Recorded drug sensitivity score for C[C@@H](Oc1ccc2[nH]nc(/C=C/c3cnn(CCO)c3)c2c1)c1c(Cl)cncc1Cl , please?
2
